Recorded MIC50 values (L. longbeacheae) are given below.
Give the quantity in mg/L, number only.

Simply: C[C@H]1COc2c(N3CCN(C)CC3)c(F)cc3c(=O)c(C(=O)O)cn1c23 , L. longbeacheae, MIC50 = 0.016

Simply: CC[C@H]1OC(=O)[C@H](C)[C@@H](O[C@H]2C[C@@](C)(OC)[C@@H](O)[C@H](C)O2)[C@H](C)[C@@H](O[C@@H]2O[C@H](C)C[C@H](N(C)C)[C@H]2O)[C@](C)(O)C[C@@H](C)CN(C)[C@H](C)[C@@H](O)[C@]1(C)O , L. longbeacheae, MIC50 = 0.12

Simply: COc1c(N2C[C@@H]3CCCN[C@@H]3C2)c(F)cc2c(=O)c(C(=O)O)cn(C3CC3)c12 , L. longbeacheae, MIC50 = 0.016

Simply: Cc1c(F)c(N2CCNC(C)C2)cc2c1c(=O)c(C(=O)O)cn2C1CC1 (stereo not shown) , L. longbeacheae, MIC50 = 0.03

Simply: CC1COc2c(N3CCN(C)CC3)c(F)cc3c(=O)c(C(=O)O)cn1c23 (stereo not shown) , L. longbeacheae, MIC50 = 0.03

Simply: CC[C@H]1OC(=O)[C@H](C)[C@@H](O[C@H]2C[C@@](C)(OC)[C@@H](O)[C@H](C)O2)[C@H](C)[C@@H](O[C@@H]2O[C@H](C)C[C@H](N(C)C)[C@H]2O)[C@](C)(OC)C[C@@H](C)C(=O)[C@H](C)[C@@H](O)[C@]1(C)O , L. longbeacheae, MIC50 = 0.06

Simply: CC[C@H]1OC(=O)[C@H](C)[C@@H](O[C@H]2C[C@@](C)(OC)[C@@H](O)[C@H](C)O2)[C@H](C)[C@@H](O[C@@H]2O[C@H](C)C[C@H](N(C)C)[C@H]2O)[C@](C)(O)C[C@@H](C)C(=O)[C@H](C)[C@@H](O)[C@]1(C)O , L. longbeacheae, MIC50 = 0.25

Simply: CO/N=C1\CN(c2nc3c(cc2F)c(=O)c(C(=O)O)cn3C2CC2)CC1CN (racemic) , L. longbeacheae, MIC50 = 0.06

* * *

System: L. pneumophila serogroup 4
Assay: microbe, parasite or virus in culture
Type: cell-based
Conditions: Legionella pneumophila, 48 h, read-out: MIC Range
VALUE_TYPE: MIC

Given item Cc1c(F)c(N2CCNC(C)C2)cc2c1c(=O)c(C(=O)O)cn2C1CC1 (centres unmarked) [Grepafloxacin] , the value recorded as its MIC is 0.008 to 0.016 µg/mL

Given item C[C@H]1COc2c(N3CCN(C)CC3)c(F)cc3c(=O)c(C(=O)O)cn1c23 [Levofloxacin] , the value recorded as its MIC is 0.004 to 0.016 µg/mL

Given item CC1COc2c(N3CCN(C)CC3)c(F)cc3c(=O)c(C(=O)O)cn1c23 (centres unmarked) [Ofloxacin] , the value recorded as its MIC is 0.008 to 0.03 µg/mL

Given item CC[C@H]1OC(=O)[C@H](C)[C@@H](O[C@H]2C[C@@](C)(OC)[C@@H](O)[C@H](C)O2)[C@H](C)[C@@H](O[C@@H]2O[C@H](C)C[C@H](N(C)C)[C@H]2O)[C@](C)(O)C[C@@H](C)CN(C)[C@H](C)[C@@H](O)[C@]1(C)O [Azithromycin] , the value recorded as its MIC is 0.008 to 0.25 µg/mL

Given item CC[C@H]1OC(=O)[C@H](C)[C@@H](O[C@H]2C[C@@](C)(OC)[C@@H](O)[C@H](C)O2)[C@H](C)[C@@H](O[C@@H]2O[C@H](C)C[C@H](N(C)C)[C@H]2O)[C@](C)(O)C[C@@H](C)C(=O)[C@H](C)[C@@H](O)[C@]1(C)O [Erythromycin] , the value recorded as its MIC is 0.016 to 0.5 µg/mL
